Biological target: JAK1 kinase domain (Homo sapiens (Human), UniProt P23458)
Sequence (P23458 861-1152): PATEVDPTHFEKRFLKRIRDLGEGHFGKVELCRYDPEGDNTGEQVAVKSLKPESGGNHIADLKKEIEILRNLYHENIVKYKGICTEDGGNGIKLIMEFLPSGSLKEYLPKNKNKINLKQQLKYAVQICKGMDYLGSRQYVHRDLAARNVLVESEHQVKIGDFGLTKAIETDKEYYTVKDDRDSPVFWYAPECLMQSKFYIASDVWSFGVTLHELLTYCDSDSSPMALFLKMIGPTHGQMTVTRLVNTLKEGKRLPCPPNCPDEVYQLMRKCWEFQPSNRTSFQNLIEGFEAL
Assay: Biochemical assay for inhibitors of JAK kinase activity, JAK1
Settings: preactivated JAK1 kinase domain 2.5 nM, 100 μM ATP
Entries annotated with measured log10 IC50
readout name: log10 IC50 (log10 of the value in nM)

molecule	assay target	log10 IC50
Cc1ccc(Cl)cc1-n1cc(-c2ncnn3cccc23)cc1C(N)=O [compd 233]	JAK1 kinase domain (Homo sapiens (Human), UniProt P23458)	2.60
NC(=O)c1cc(-c2ncnc3[nH]ncc23)cn1-c1cc(C(F)(F)F)ccc1Cl [compd 246]	JAK1 kinase domain (Homo sapiens (Human), UniProt P23458)	2.33
Cc1ccc(C(F)(F)F)cc1-c1[nH]c(-c2ncnc3[nH]ccc23)cc1C(N)=O [compd 213]	JAK1 kinase domain (Homo sapiens (Human), UniProt P23458)	1.43
NC(=O)c1cc(-c2cc(N)ncn2)[nH]c1-c1cc(C(F)(F)F)ccc1Cl [compd 204]	JAK1 kinase domain (Homo sapiens (Human), UniProt P23458)	2.22
NC(=O)c1cc(-c2ncnn3cccc23)cn1-c1cc(C(F)(F)F)ccc1Cl [compd 247]	JAK1 kinase domain (Homo sapiens (Human), UniProt P23458)	3.00
N#Cc1cc(-c2ncnc3[nH]ccc23)cn1-c1cc(C(F)(F)F)ccc1Cl [compd 72]	JAK1 kinase domain (Homo sapiens (Human), UniProt P23458)	1.23
CCc1ccc(C(F)(F)F)cc1-c1cc(-c2ncnc3[nH]ccc23)[nH]c1C(N)=O [compd 125]	JAK1 kinase domain (Homo sapiens (Human), UniProt P23458)	1.28
Cc1ccc(Cl)cc1-c1[nH]c(-c2ncnc3[nH]ccc23)cc1C(N)=O [compd 191]	JAK1 kinase domain (Homo sapiens (Human), UniProt P23458)	1.30
CCc1ccc(Cl)cc1-c1cc(-c2ncnc3[nH]ccc23)[nH]c1C(=O)NC [compd 130]	JAK1 kinase domain (Homo sapiens (Human), UniProt P23458)	1.04
CCc1ccc(Cl)cc1-c1[nH]c(-c2cc(N)ncn2)cc1C(N)=O [compd 197]	JAK1 kinase domain (Homo sapiens (Human), UniProt P23458)	0.90
Cc1ccc(Cl)cc1-c1[nH]c(-c2ccnc3[nH]ccc23)cc1C(N)=O [compd 192]	JAK1 kinase domain (Homo sapiens (Human), UniProt P23458)	2.05
CCc1ccc(C(F)(F)F)cc1-c1[nH]c(-c2cc(NC)ncn2)cc1C(=O)NC [compd 322]	JAK1 kinase domain (Homo sapiens (Human), UniProt P23458)	1.11
Cc1ccc(Cl)cc1-n1cc(-c2ncnc3[nH]ccc23)cc1C#N [compd 63]	JAK1 kinase domain (Homo sapiens (Human), UniProt P23458)	1.18
CCc1ccc(Cl)cc1-n1cc(-c2cc(N)ncn2)cc1C(N)=O [compd 235]	JAK1 kinase domain (Homo sapiens (Human), UniProt P23458)	1.90
CCc1ccc(Cl)cc1-c1cc(-c2ncnc3[nH]ccc23)[nH]c1C(N)=O [compd 124]	JAK1 kinase domain (Homo sapiens (Human), UniProt P23458)	1.26
CCc1ccc(Cl)cc1-n1cc(-c2ncnn3cccc23)cc1C(N)=O [compd 240]	JAK1 kinase domain (Homo sapiens (Human), UniProt P23458)	2.13
CCc1ccc(C(F)(F)F)cc1-c1[nH]c(-c2cc(N)ncn2)cc1C(N)=O [compd 218]	JAK1 kinase domain (Homo sapiens (Human), UniProt P23458)	1.52
CCc1ccc(C(F)(F)F)cc1-c1[nH]c(-c2ncnc3[nH]ccc23)cc1C(=O)NC [compd 323]	JAK1 kinase domain (Homo sapiens (Human), UniProt P23458)	0.78
NC(=O)c1cc(-c2ncnc3[nH]ccc23)[nH]c1-c1cc(C(F)(F)F)ccc1Cl [compd 206]	JAK1 kinase domain (Homo sapiens (Human), UniProt P23458)	2.15
CCc1ccc(C(F)(F)F)cc1-c1[nH]c(-c2cc(NC)ncn2)cc1C(N)=O [compd 219]	JAK1 kinase domain (Homo sapiens (Human), UniProt P23458)	1.15
CNC(=O)c1[nH]c(-c2ncnc3[nH]ccc23)cc1-c1cc(Cl)ccc1C [compd 129]	JAK1 kinase domain (Homo sapiens (Human), UniProt P23458)	1.58
CCc1ccc(C(F)(F)F)cc1-c1cc(-c2ncnc3[nH]ccc23)[nH]c1C(=O)NC [compd 131]	JAK1 kinase domain (Homo sapiens (Human), UniProt P23458)	1.40
CCc1ccc(Cl)cc1-c1[nH]c(-c2cc(NC)ncn2)cc1C(=O)NC [compd 302]	JAK1 kinase domain (Homo sapiens (Human), UniProt P23458)	0.00
NC(=O)c1cc(-c2ncnc3[nH]ccc23)cn1-c1cc(C(F)(F)F)ccc1Cl [compd 244]	JAK1 kinase domain (Homo sapiens (Human), UniProt P23458)	0.60
CCc1ccc(Cl)cc1-c1[nH]c(-c2cc(N)ncn2)cc1C(=O)NC [compd 301]	JAK1 kinase domain (Homo sapiens (Human), UniProt P23458)	1.28
Cc1ccc(Cl)cc1-n1cc(-c2ncnc3c2CCN3)cc1C(N)=O [compd 234]	JAK1 kinase domain (Homo sapiens (Human), UniProt P23458)	0.90
CCc1ccc(C(F)(F)F)cc1-c1[nH]c(-c2cc(N)ncn2)cc1C(=O)NC [compd 321]	JAK1 kinase domain (Homo sapiens (Human), UniProt P23458)	0.95
NC(=O)c1cc(-c2ncnc3[nH]cnc23)cn1-c1cc(C(F)(F)F)ccc1Cl [compd 245]	JAK1 kinase domain (Homo sapiens (Human), UniProt P23458)	2.59
Cc1ccc(Cl)cc1-n1cc(-c2ncnc3[nH]ncc23)cc1C(N)=O [compd 232]	JAK1 kinase domain (Homo sapiens (Human), UniProt P23458)	2.50
CNc1cc(-c2cc(C(N)=O)c(-c3cc(Cl)ccc3C)[nH]2)ncn1 [compd 190]	JAK1 kinase domain (Homo sapiens (Human), UniProt P23458)	1.72
CCc1ccc(Cl)cc1-c1[nH]c(-c2cc(NC)ncn2)cc1C(N)=O [compd 198]	JAK1 kinase domain (Homo sapiens (Human), UniProt P23458)	0.90
Cc1ccc(Cl)cc1-n1cc(-c2ncnc3[nH]ccc23)cc1C(N)=O [compd 229]	JAK1 kinase domain (Homo sapiens (Human), UniProt P23458)	0.48
CNc1cc(-c2cc(C(N)=O)c(-c3cc(C(F)(F)F)ccc3C)[nH]2)ncn1 [compd 212]	JAK1 kinase domain (Homo sapiens (Human), UniProt P23458)	1.68
Cc1ccc(Cl)cc1-c1[nH]c(-c2cc(N)ncn2)cc1C(N)=O [compd 189]	JAK1 kinase domain (Homo sapiens (Human), UniProt P23458)	2.14
CCc1ccc(Cl)cc1-n1cc(-c2ncnc3c2CCN3)cc1C(N)=O [compd 241]	JAK1 kinase domain (Homo sapiens (Human), UniProt P23458)	0.90
